# assay_comment: Pharmacokinetic study of tetrabenazine and dihydrotetrabenazine metabolites in plasma after oral tetrabenazine 25 mg tablets
# Assay type: in vivo, human
# conditions_used: human, plasma, oral, 25 mg; single dose study, tetrabenazine to adult male humans

molecule | value_unit | Cmax
COc1cc2c(cc1OC)[C@H]1C[C@@H](O)[C@H](CC(C)C)CN1CC2 [(+)-α-DHTBZ] | ng/mL | 2.61
COc1cc2c(cc1OC)[C@@H]1C[C@H](O)[C@@H](CC(C)C)CN1CC2 [(−)-α-DHTBZ] | ng/mL | 72.9
COc1cc2c(cc1OC)[C@H]1C[C@H](O)[C@H](CC(C)C)CN1CC2 [(+)-β-DHTBZ] | ng/mL | 103
